In this section, each of the compounds is paired with its reported IC50.
STUDY_SYSTEM: Recombinant human HDAC8 (Homo sapiens)
Construct: purchased Enzo Life Sciences BML-SE145-0100
Sequence (Q9BY41 whole entry): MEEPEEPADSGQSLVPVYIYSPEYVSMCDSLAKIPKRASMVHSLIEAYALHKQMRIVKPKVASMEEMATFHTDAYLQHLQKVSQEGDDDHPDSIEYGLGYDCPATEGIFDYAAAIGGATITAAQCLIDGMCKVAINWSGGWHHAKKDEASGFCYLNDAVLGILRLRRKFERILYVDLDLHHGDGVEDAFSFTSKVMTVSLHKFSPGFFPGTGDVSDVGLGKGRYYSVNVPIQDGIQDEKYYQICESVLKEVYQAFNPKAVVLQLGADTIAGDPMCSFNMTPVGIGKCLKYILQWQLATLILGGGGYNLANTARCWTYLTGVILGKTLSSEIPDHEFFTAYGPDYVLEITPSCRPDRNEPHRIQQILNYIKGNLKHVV
TEST: Human HDAC enzyme inhibitor Fluor-de-Lys assay, HDAC8
Format: biochemical
MEASURE_NAME: IC50 (µM)

> print(dat)
                                    compound  value.qualifier  data.value
 1  COc1cc2nc(C)ccc2cc1-c1cnc([C@H](CCCCCC(=O)CC2CC2)NC(=O)[C@H]2CC23CCN(C)CC3)o1 [Compound 195]                =        7.86
 2  CCC(=O)CCCCC[C@H](NC(=O)C1(CC(C)C)CC2(CN(C)C2)C1)c1ncc(-c2ccc3nc(C)ccc3c2)[nH]1 [Compound 157]                =        4.18
 3  CCC(=O)CCCCC[C@H](NC(=O)C1=NOC2(CCN(CC)CC2)C1)c1ncc(-c2cc3ccc(C)nc3cc2OC)o1 [Compound 204]                >         0.9
 4  CCC(=O)CCCCC[C@H](N)c1ncc(-c2cc3ccc(C)nc3cc2OC)[nH]1 [Compound 209]                =       0.144
 5  CCN1CCC2(CC1)C[C@@H]2C(=O)N[C@@H](CCCCCC(=O)CC1CC1)c1ncc(-c2cc3ccc(C)nc3cc2OC)o1 [Compound 167]                =        8.27
 6  CCC(=O)CCCCC[C@H](NC(=O)[C@H]1CC12CCOCC2)c1ncc(-c2cc3ccccc3nc2OC)[nH]1 [Compound 63]                =        3.09
 7  CCC(=O)CCCCC[C@H](NC(=O)[C@H]1CC12CCN(C(C)C)CC2)c1ncc(-c2ccc3nc(C4CC4)ccc3c2)[nH]1 [Compound 100]                =        8.25
 8  CCC(=O)CCCCC[C@H](NC(=O)[C@H]1CC12CCN(CC)CC2)c1ncc(-c2ccc3c(=O)n(C(C)C)ccc3c2)[nH]1 [Compound 126]                =        6.48
 9  CCC(=O)CCCCC[C@H](NC(=O)[C@H]1CC12CCN(CC)CC2)c1ncc(-c2ccc3c(ccc(=O)n3C)c2)o1 [Compound 97]                >          45
10  CCC(=O)CCCCC[C@H](NC(=O)[C@H]1CC12CCN(CC)CC2)c1ncc(-c2ccc3c(=O)n(C4CC4)ccc3c2)[nH]1 [Compound 150]                =        4.37
11  CCC(=O)CCCCC[C@H](NC(=O)[C@H]1CC12CCN(CC)CC2)c1ncc(-c2ccc3c(=O)n(CC)ccc3c2)[nH]1 [Compound 92]                =        6.26
12  CCC(=O)CCCCC[C@H](NC(=O)C1=NOC2(CCN(C)CC2)C1)c1ncc(-c2cc3ccccc3nc2OC)[nH]1 [Compound 105]                =        2.89
13  CN1CCC2(CC1)C[C@@H]2C(=O)N[C@@H](CCCCCC(=O)CC1CC1)c1ncc(-c2ccc(F)cc2)[nH]1 [Compound 84]                =        14.3
